Biological target: Serine/threonine-protein kinase MRCK beta (Homo sapiens) (UniProt Q9Y5S2)
Sequence (Q9Y5S2 whole entry): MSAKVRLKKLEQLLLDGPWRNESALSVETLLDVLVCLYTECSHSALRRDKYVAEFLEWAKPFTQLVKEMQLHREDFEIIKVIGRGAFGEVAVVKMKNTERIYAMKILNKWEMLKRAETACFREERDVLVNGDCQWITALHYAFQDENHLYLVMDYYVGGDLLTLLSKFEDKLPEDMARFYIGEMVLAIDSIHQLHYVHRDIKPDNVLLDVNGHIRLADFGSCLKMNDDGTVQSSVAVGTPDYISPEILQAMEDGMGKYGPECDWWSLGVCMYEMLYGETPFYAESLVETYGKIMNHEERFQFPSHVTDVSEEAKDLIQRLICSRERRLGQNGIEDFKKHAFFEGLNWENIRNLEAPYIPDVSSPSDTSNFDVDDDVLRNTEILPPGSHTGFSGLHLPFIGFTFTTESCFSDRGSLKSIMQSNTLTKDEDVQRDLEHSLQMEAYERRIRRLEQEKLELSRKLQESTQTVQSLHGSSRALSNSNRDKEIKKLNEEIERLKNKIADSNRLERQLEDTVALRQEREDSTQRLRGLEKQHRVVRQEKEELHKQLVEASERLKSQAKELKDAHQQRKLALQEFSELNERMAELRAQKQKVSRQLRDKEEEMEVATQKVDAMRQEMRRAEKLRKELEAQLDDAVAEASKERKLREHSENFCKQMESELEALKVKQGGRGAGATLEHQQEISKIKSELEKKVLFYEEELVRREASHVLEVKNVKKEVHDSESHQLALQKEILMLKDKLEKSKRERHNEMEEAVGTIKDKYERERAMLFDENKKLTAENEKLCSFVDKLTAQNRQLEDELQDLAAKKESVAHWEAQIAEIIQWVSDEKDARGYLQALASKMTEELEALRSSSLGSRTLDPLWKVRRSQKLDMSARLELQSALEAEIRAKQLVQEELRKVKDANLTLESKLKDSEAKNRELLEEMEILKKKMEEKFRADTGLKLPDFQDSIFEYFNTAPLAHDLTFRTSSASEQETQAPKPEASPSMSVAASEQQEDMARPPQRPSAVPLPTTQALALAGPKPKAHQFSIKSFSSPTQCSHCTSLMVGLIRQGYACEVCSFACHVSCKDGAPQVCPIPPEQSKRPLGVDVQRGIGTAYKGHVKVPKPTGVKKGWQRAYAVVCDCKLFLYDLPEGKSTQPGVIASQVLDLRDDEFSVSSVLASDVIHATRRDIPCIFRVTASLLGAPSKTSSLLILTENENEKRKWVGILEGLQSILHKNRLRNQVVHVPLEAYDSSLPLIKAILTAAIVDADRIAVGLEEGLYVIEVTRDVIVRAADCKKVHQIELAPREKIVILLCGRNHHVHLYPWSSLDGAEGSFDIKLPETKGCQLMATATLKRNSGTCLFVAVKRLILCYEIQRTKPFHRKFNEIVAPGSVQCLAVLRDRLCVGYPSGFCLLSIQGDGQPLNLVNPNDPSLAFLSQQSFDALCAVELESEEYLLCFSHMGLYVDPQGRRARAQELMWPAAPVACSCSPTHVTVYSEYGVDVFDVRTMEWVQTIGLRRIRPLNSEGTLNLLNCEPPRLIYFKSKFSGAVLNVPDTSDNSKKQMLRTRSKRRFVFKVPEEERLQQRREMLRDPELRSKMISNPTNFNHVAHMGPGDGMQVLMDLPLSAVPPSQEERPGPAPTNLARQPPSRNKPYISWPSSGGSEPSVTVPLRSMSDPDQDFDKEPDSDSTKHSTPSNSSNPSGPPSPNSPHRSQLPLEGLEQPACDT
Details: at 10 µM
Criterion: residual activity strictly under 80%. Met: Satisfied. Not met: Not satisfied.

Does the reported residual activity of `Cn1c2ccccc2c2c3c(c4c5ccccc5n(CCC#N)c4c21)CNC3=O` stay below 80%?
Satisfied

Does the reported residual activity of `CC(C)c1nn(-c2c(Cl)cccc2Cl)c2nc(Cc3ccc(OCCO)cc3)[nH]c(=O)c12` stay below 80%?
Not satisfied

Does the reported residual activity of `O=C1Nc2ccc(Cl)cc2/C1=C/c1cc(Cl)c(O)c(Cl)c1` stay below 80%?
Satisfied

Does the reported residual activity of `c1ccc(-c2cnc(Nc3ccc(OCCN4CCCC4)cc3)s2)cc1` stay below 80%?
Not satisfied

Does the reported residual activity of `O=C(O)/C=C/c1cc(Br)c(Br)c(Br)c1Br` stay below 80%?
Not satisfied

Does the reported residual activity of `COc1cc2nccc(Oc3ccc(NC(=S)NC(=O)c4ccccc4C)cc3)c2cc1OC` stay below 80%?
Satisfied

Does the reported residual activity of `O=S(=O)(NCCNC/C=C/c1ccc(Br)cc1)c1cccc2cnccc12` stay below 80%?
Satisfied

Does the reported residual activity of `CC(C)N(CCC(=O)c1ccc2ccccc2c1)Cc1ccccc1` stay below 80%?
Satisfied

Does the reported residual activity of `CCOC(=O)c1c(C)[nH]c(/C=C2\C(=O)Nc3ccccc32)c1C` stay below 80%?
Not satisfied

Does the reported residual activity of O=C(NC(NC(=S)Nc1ccc(F)c([N+](=O)[O-])c1)C(Cl)(Cl)Cl)C(c1ccccc1)c1ccccc1 (stereo not drawn) stay below 80%?
Not satisfied

Does the reported residual activity of `NC(=O)Nc1sc(-c2ccc(F)cc2)cc1C(N)=O` stay below 80%?
Satisfied

Does the reported residual activity of `Nc1ncnc2c1c(-c1ccc(Oc3ccccc3)cc1)cn2C1CCCC1` stay below 80%?
Satisfied

###

Kindly supply the reported residual activity values for the records listed here.
Molecular target: Serine/threonine-protein kinase MARK1 (Homo sapiens)
Details: at 1 µM
Give just the numeric value; % need not be written.

Supply residual activity measured with Serine/threonine-protein kinase MARK1 (Homo sapiens) for `O=C1NC(=O)c2c1c1c3ccccc3[nH]c1n1cncc21` .
25

Supply residual activity measured with Serine/threonine-protein kinase MARK1 (Homo sapiens) for `O=C1Cc2c([nH]c3ccc([N+](=O)[O-])cc23)-c2ccccc2N1` .
34

Supply residual activity measured with Serine/threonine-protein kinase MARK1 (Homo sapiens) for `O=C1Nc2ccc(Cl)cc2/C1=C/c1cc(Cl)c(O)c(Cl)c1` .
69

Supply residual activity measured with Serine/threonine-protein kinase MARK1 (Homo sapiens) for `O=C1C(Cl)=C(N2C(=O)CCC2=O)C(=O)c2ccccc21` .
82

Supply residual activity measured with Serine/threonine-protein kinase MARK1 (Homo sapiens) for `Nc1n[nH]c2nc3ccccc3nc12` .
75

###

Biological target: Aurora kinase B (Homo sapiens)
Settings: at 10 µM
Kindly supply the reported residual activity values for the records listed here.
Give just the numeric value; % need not be written.

Give recorded residual activity. `COc1cc2nccc(Oc3ccc(NC(=S)NC(=O)c4ccccc4C)cc3)c2cc1OC`
-1

Give recorded residual activity. `CC(C)N(CCC(=O)c1ccc2ccccc2c1)Cc1ccccc1`
83

Give recorded residual activity. `Nc1ncnc2[nH]nc(Nc3ccc(F)cc3)c12`
22

Give recorded residual activity. `NC(=O)c1ccc(-c2nc(-c3ccc4c(c3)OCCO4)c(-c3ccccn3)[nH]2)cc1`
70

Give recorded residual activity. `Nc1ncnc2c1c(-c1ccc(Oc3ccccc3)cc1)cn2C1CCCC1`
6

Give recorded residual activity. `O=C1NC(=O)c2c1c1c3ccccc3[nH]c1n1cncc21`
0

Give recorded residual activity. `O=C1C(Cl)=C(N2C(=O)CCC2=O)C(=O)c2ccccc21`
36

Give recorded residual activity. `CCN1/C(=C/C(C)=O)Sc2ccc(OC)cc21`
122

Give recorded residual activity. `NCCNc1ncc(C(N)=O)c(Nc2cccc(C(F)(F)F)c2)n1`
46

Give recorded residual activity. `CCCCc1c(-c2ccc(OC)cc2)[nH]c2nccnc12`
-1

Give recorded residual activity. `O=C1NC(=O)C(c2c[nH]c3ccccc23)=C1c1c[nH]c2ccccc12`
20

###

Biological target: Serine/threonine-protein kinase DCLK2 (Homo sapiens)
Conditions: at 1 µM
So basically, the class depends on measured residual activity, and the ranges are lower level (below 70%), middle level (70% to below 90%), upper level (90% or more)

Band for the recorded residual activity of `CC(C)(C)n1nc(Cc2cccc3ccccc23)c2c(N)ncnc21` ?
middle level

Band for the recorded residual activity of `Nc1ncnc2[nH]nc(Nc3ccc(F)cc3)c12` ?
upper level

Band for the recorded residual activity of `O=C(Nc1ccc(Cl)cc1)c1ccccc1NCc1ccncc1` ?
middle level

Band for the recorded residual activity of `O=C1NC(=O)c2c1c1c3ccccc3[nH]c1n1cncc21` ?
upper level

Band for the recorded residual activity of `O=c1c(-c2ccc(F)cc2)c(-c2ccncc2)[nH]n1-c1ccc(Cl)cc1` ?
upper level

Band for the recorded residual activity of `NC(=O)Nc1sc(-c2ccc(F)cc2)cc1C(N)=O` ?
upper level

Band for the recorded residual activity of `Oc1cccc(-c2nc(N3CCOCC3)c3oc4ncccc4c3n2)c1` ?
upper level

Band for the recorded residual activity of `CN(C)S(=O)(=O)c1ccc2c(c1)/C(=C/c1cc3c([nH]1)CCCC3)C(=O)N2` ?
lower level

Band for the recorded residual activity of `O=C(c1ccccc1)c1ccc(N2CCOCC2)cc1O` ?
lower level

Band for the recorded residual activity of `Cn1c2ccccc2c2c3c(c4c5ccccc5n(CCC#N)c4c21)CNC3=O` ?
lower level

Band for the recorded residual activity of `COc1ccc(-c2cnc3c(-c4ccsc4)cnn3c2)cc1` ?
middle level

Band for the recorded residual activity of `CC(C)(C)c1nc2c3ccc(F)cc3c3c(=O)[nH]ccc3c2[nH]1` ?
lower level

Band for the recorded residual activity of `COc1cc2c(cc1OC)-c1n[nH]c(Nc3cccc(F)c3)c1C2` ?
upper level

Band for the recorded residual activity of `O=C(O)/C=C/c1cc(Br)c(Br)c(Br)c1Br` ?
upper level

Band for the recorded residual activity of CSc1nc(-c2ccc(F)cc2)c(-c2ccnc(NC(C)c3ccccc3)c2)[nH]1 (stereo not drawn) ?
upper level

Band for the recorded residual activity of `O=C1Nc2ccc(Cl)cc2/C1=C/c1cc(Cl)c(O)c(Cl)c1` ?
lower level

Band for the recorded residual activity of `COc1ccc2c(c1)c(C1=C(c3c[nH]c4ccccc34)C(=O)NC1=O)cn2CCCN(C)C` ?
lower level

###

Kindly supply the reported residual activity values for the records listed here.
Target: Cyclin-dependent kinase 1/cyclin B1 (Homo sapiens) (UniProt P06493+P14635)
Sequence (P06493 whole entry, looked up): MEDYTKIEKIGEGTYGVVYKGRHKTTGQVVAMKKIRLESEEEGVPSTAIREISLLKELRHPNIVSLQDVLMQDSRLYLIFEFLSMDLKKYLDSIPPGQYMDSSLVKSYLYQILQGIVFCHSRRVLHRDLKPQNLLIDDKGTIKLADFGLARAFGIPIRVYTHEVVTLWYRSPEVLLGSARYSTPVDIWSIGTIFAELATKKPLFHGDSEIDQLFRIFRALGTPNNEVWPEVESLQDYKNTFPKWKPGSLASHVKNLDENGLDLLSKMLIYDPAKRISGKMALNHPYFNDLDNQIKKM
Sequence (P14635 whole entry, looked up): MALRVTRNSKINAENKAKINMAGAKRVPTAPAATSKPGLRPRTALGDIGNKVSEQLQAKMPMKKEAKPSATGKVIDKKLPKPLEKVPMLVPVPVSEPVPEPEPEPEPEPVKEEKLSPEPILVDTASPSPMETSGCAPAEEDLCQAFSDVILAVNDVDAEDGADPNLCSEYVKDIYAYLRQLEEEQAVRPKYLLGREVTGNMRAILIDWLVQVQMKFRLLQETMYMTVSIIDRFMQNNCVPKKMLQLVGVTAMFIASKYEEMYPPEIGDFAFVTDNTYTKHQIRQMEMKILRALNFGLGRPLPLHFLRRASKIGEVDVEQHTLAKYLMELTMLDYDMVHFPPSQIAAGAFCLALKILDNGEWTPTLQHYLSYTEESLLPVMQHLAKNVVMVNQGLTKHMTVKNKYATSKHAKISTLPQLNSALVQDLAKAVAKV
Details: at 1 µM

Give recorded residual activity. `Cn1c2ccccc2c2c3c(c4c5ccccc5n(CCC#N)c4c21)CNC3=O`
20%

Give recorded residual activity. `Nc1ncnc2c1c(-c1ccc(Oc3ccccc3)cc1)cn2C1CCCC1`
104%

Give recorded residual activity. `O=C1Cc2c([nH]c3ccc([N+](=O)[O-])cc23)-c2ccccc2N1`
47%

Give recorded residual activity. `CC(C)(C)n1nc(Cc2cccc3ccccc23)c2c(N)ncnc21`
106%

Give recorded residual activity. `O=C1Cc2c([nH]c3ccc(Br)cc23)-c2ccccc2N1`
52%

Give recorded residual activity. `O=C1Nc2ccc(Cl)cc2/C1=C/c1cc(Cl)c(O)c(Cl)c1`
95%

Give recorded residual activity. `COc1cc2c(cc1OC)-c1n[nH]c(Nc3cccc(F)c3)c1C2`
114%

Give recorded residual activity. `CCCCc1c(-c2ccc(O)cc2)[nH]c2nccnc12`
29%

Give recorded residual activity. `Fc1ccc(-c2nc3n(c2-c2ccncc2)CCS3)cc1`
100%

Give recorded residual activity. `CC(C)c1nn(-c2c(Cl)cccc2Cl)c2nc(Cc3ccc(OCCO)cc3)[nH]c(=O)c12`
3%

Give recorded residual activity. `CCCCc1c(-c2ccc(OC)cc2)[nH]c2nccnc12`
31%

Give recorded residual activity. `O=c1cc(N2CCNCC2)oc2c(-c3ccccc3)cccc12`
104%

Give recorded residual activity. `c1ccc(-c2cnc(Nc3ccc(OCCN4CCCC4)cc3)s2)cc1`
113%

Give recorded residual activity. `O=C1NC(=O)C(c2cn(CCCO)c3ncccc23)=C1c1cnccn1`
72%

###

Kindly supply the reported residual activity values for the records listed here.
Biological target: Dual specificity protein kinase CLK2 (Homo sapiens)
Conditions: at 1 µM
Give just the numeric value; % need not be written.

Give recorded residual activity. `O=C1Cc2c([nH]c3ccc(Br)cc23)-c2ccccc2N1`
80

Give recorded residual activity. `O=C1NC(=O)C(c2c[nH]c3ccccc23)=C1c1c[nH]c2ccccc12`
27

Give recorded residual activity. `CCCCc1c(-c2ccc(O)cc2)[nH]c2nccnc12`
64

Give recorded residual activity. `COc1cc2c(cc1OC)-c1n[nH]c(Nc3cccc(F)c3)c1C2`
108

Give recorded residual activity. `Cc1cc(C)c(/C=C2\C(=O)Nc3ccccc32)[nH]1`
49

Give recorded residual activity. `CCCCc1c(-c2ccc(OC)cc2)[nH]c2nccnc12`
78

Give recorded residual activity. `Nc1n[nH]c2nc3ccccc3nc12`
84

Give recorded residual activity. `O=C1Nc2ccc(Cl)cc2/C1=C/c1cc(Cl)c(O)c(Cl)c1`
84

Give recorded residual activity. `Nc1nc(Nc2ccc(S(N)(=O)=O)cc2)nn1C(=O)c1c(F)cccc1F`
40

Give recorded residual activity. `O=C(Nc1ccc(Cl)cc1)c1ccccc1NCc1ccncc1`
120

Give recorded residual activity. `O=C(Nc1nc2ccccc2n1CCN1CCOCC1)c1cccc([N+](=O)[O-])c1`
26
